Structures can show the parent of a compound that is named as a salt.
Kindly supply the reported melting point values for the records listed here.

Field: example entries. Status: answers known.
Cn1c(SCCCN2CCc3cc(Cl)ccc3C2)nnc1-c1ccsc1 [Example 39]: 99 to 100 °C
Cn1c(SCCCN2CCc3ccc(S(=O)(=O)N4CCCCC4)cc3C2)nnc1-c1ccccc1 [Example 4]: 105 to 108 °C
Cn1c(SCCCN2CCc3ccc(C#N)cc3C2)nnc1-c1ccccc1 [Example 7]: 116 to 118 °C
CCN(CC)CCOc1cccc2c1CCN(CCCSc1nnc(-c3ccccc3)n1C)C2.Cl.Cl: 110 to 112 °C

Go through the items and report each one's melting point.
1. Cn1c(SCCCN2CCc3ccc(S(=O)(=O)NCc4ccccc4)cc3C2)nnc1-c1cccnc1 (as salt: HCl) [Example 10]
2. Cc1ncsc1-c1nnc(SCCCN2CCc3ccc(S(=O)(=O)Nc4ccccc4)cc3C2)n1C [Example 26]
3. Cn1cccc1-c1nnc(SCCCN2CCc3ccc(S(=O)(=O)N4CCCCC4)cc3C2)n1C [Example 35]

OUT:
1: 81 to 84 °C; 2: 77 to 81 °C; 3: 96 to 100 °C
